Data provenance: patent US8940739B2

Target: cDNA-expressed human hepatic CYP3A4 (Homo sapiens (Human))
Sequence (P08684 whole entry): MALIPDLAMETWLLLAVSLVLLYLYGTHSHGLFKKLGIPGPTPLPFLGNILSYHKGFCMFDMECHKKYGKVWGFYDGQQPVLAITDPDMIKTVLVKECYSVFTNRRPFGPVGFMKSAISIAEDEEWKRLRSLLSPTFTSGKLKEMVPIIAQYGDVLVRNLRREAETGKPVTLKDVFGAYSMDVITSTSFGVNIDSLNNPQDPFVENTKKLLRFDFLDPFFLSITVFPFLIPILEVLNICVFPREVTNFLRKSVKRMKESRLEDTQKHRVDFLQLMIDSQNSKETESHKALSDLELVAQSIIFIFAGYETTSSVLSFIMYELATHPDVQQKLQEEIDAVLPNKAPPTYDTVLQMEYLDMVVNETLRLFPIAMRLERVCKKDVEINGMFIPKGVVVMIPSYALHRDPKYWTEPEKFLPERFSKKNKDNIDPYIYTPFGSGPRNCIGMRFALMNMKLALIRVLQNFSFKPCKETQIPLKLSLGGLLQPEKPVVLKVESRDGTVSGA
Assay: Measurement of CYP (IC50 of P450 CYP3A4), BFC substrate
Type: in vitro ADME
Details: 20 minutes
// classify: if (IC50 < 8 µM) criterion met else criterion not met

Report whether reported IC50 is lower than 8 µM (strictly) for C=CCN1CC(=O)N2[C@@H](Cc3ccc(O)cc3)C(=O)N(Cc3cccc4c(-c5ccc(C(=O)Nc6cccc(OC)c6)cc5)cn(C)c34)C[C@@H]2N1C(=O)NCc1ccccc1
criterion met

Same question, C=CCN1CC(=O)N2C(Cc3ccc(O)cc3)C(=O)N(Cc3cccc4c(C(=O)Nc5ccc(N6CCN(Cc7ccc(OC)cc7)CC6)nc5)cn(C)c34)CC2N1C(=O)NCc1ccccc1 (centres unmarked) this time
criterion not met

Turning now to a further compound:
Find out if reported IC50 for C=CCN1CC(=O)N2[C@@H](Cc3ccc(O)cc3)C(=O)N(Cc3cccc4c(-c5ccc(NC(=O)c6ccc(CN(CC)CC)cc6)cc5)cn(C)c34)C[C@@H]2N1C(=O)NCc1ccccc1 is less than 8 µM
criterion met

###

Test system: MV-4-11 (human, Acute Myeloid Leukemia cell line) cells
Assay: Cell growth inhibition assay, GI50 of MV-4-11
Assay type: cell-based
Settings: Homo sapiens, MV4-11, 72 h, MV-4-11 cells
ASSAY_ENDPOINT: log10(GI50) (log10 of the value in nM)
Please keep in mind that the values are log10 of GI50 expressed in nM.

Find the recorded log10(GI50) belonging to C=CCN1CC(=O)N2[C@@H](Cc3ccc(O)cc3)C(=O)N(Cc3cccc4c(-c5ccc(NC(=O)c6ccc(CN)cc6)cc5)cn(C)c34)C[C@@H]2N1C(=O)NCc1ccccc1 and report it.
0.08

And then C=CCN1CC(=O)N2[C@@H](Cc3ccc(O)cc3)C(=O)N(Cc3cccc4c(-c5ccc(NC(=O)Nc6ccc(OC)cc6)cc5)cn(C)c34)C[C@@H]2N1C(=O)NCc1ccccc1 , what is it?
1.20

Could you do the same for C=CCN1CC(=O)N2[C@@H](Cc3ccc(O)cc3)C(=O)N(Cc3cccc4c(C(=O)N(C)CC5(CO)CC5)cn(C)c34)C[C@@H]2N1C(=O)NCc1ccccc1 , please?
1.19

Entry C=CCN1CC(=O)N2[C@@H](Cc3ccc(O)cc3)C(=O)N(Cc3cccc4c(-c5ccc(NC(=O)C6CCN(C(C)=O)CC6)nc5)cn(C)c34)C[C@@H]2N1C(=O)NCc1ccccc1 please
0.11

Similarly, C=CCN1CC(=O)N2C(CN(Cc3cccc4c(C(=O)Nc5ccc(N6CCN(C(C)C)CC6)nc5)cn(C)c34)C(=O)[C@@H]2Cc2ccc(O)cc2)N1C(=O)NCc1ccccc1 (some centres unmarked) ?
0.11

Subsequent entry: C=CCN1CC(=O)N2[C@@H](Cc3ccc(O)cc3)C(=O)N(Cc3cccc4c(C(=O)N5CCN(C(C)C)CC5)cn(C)c34)C[C@@H]2N1C(=O)NCc1ccccc1
1.05

Please do the same for C=CCN1CC(=O)N2[C@@H](Cc3ccc(O)cc3)C(=O)N(Cc3cccc4c(-c5ccc(C(=O)NN6CCN(c7ccccn7)CC6)cc5)cn(C)c34)C[C@@H]2N1C(=O)NCc1ccccc1 as well.
1.29

Try this molecule next: C=CCN1CC(=O)N2[C@@H](Cc3ccc(O)cc3)C(=O)N(Cc3cccc4c(-c5ccc(NC(=O)CCCN)cc5)cn(C)c34)C[C@@H]2N1C(=O)NCc1ccccc1
0.64

Please do the same for C=CCN1CC(=O)N2C(CN(Cc3cccc4c(-c5ccc(NC(=O)C6CCN(C)CC6)cc5)cn(C)c34)C(=O)[C@@H]2Cc2ccc(O)cc2)N1C(=O)NCc1ccccc1 (some centres unmarked) as well.
0.04

Also, C=CCN1CC(=O)N2C(Cc3ccc(O)cc3)C(=O)N(Cc3cccc4c(C(=O)Nc5ccc(N6CCN(c7ccccc7OC)CC6)nc5)cn(C)c34)CC2N1C(=O)NCc1ccccc1 (centres unmarked) please.
0.69

Next molecule up: C=CCN1CC(=O)N2[C@@H](Cc3ccc(O)cc3)C(=O)N(Cc3cccc4c(-c5ccc(C(=O)NOC(C)(C)C)cc5)cn(C)c34)C[C@@H]2N1C(=O)NCc1ccccc1
0.53

C=CCN1CC(=O)N2[C@@H](Cc3ccc(O)cc3)C(=O)N(Cc3cccc4c(-c5ccc(NC(=O)C6CCCN(C)C6)cc5)cn(C)c34)C[C@@H]2N1C(=O)NCc1ccccc1 (some centres unmarked) ?
0.11
